Tested on: rainbow trout (Oncorhynchus mykiss)
Test: Contribution of tissues to fish body burden
Format: in vivo
Conditions: fraction, Fish #2
measured parameter: Contribution of Blood to the fish's body burden
# print the numeric value only

Entry under test: CCCCCCCCCN(C)C . Its Contribution of Blood to the fish's body burden was 0.059

Measured Contribution of Blood to the fish's body burden, CCCCCCCCCCCCN : 0.015

Entry CCCCCCCCCCCCCN(C)C , Contribution of Blood to the fish's body burden reported as 0.031

For this compound ( CCCCCCCCCN ), measured Contribution of Blood to the fish's body burden is 0.017

Looking up CCCCCCCCCCCCCN , I found its Contribution of Blood to the fish's body burden recorded as 0.014

// recorded Contribution of Blood to the fish's body burden for CCCCCCCCCCCCCCCCN : 0.011

* * *

Provide the reported Contribution of Liver to the fish's body burden of each item.
Test system: rainbow trout (Oncorhynchus mykiss)
Experiment: Contribution of tissues to fish body burden
Format: in vivo
Conditions: fraction, Fish #4
No unit in the answer, only the number.

Contribution of Liver to the fish's body burden for rainbow trout (Oncorhynchus mykiss) with input CCCCCCCCCCCCCN [P13, tridecylamine] equals 0.15

// assay rainbow trout (Oncorhynchus mykiss), entry CCCCCCCCCN(C)C [T9, N,N-dimethylnonylamine] , Contribution of Liver to the fish's body burden value = 0.04

Let me check: CCCCCCCCCCCCCCCCN [P16, hexadecylamine] , system rainbow trout (Oncorhynchus mykiss), measured Contribution of Liver to the fish's body burden is 0.15

Considering CCCCCCCCCCCCCN(C)C [T13, N,N-dimethyltridecylamine] , its Contribution of Liver to the fish's body burden with rainbow trout (Oncorhynchus mykiss) was recorded as 0.21

Assay rainbow trout (Oncorhynchus mykiss), sample CCCCCCCCCN [P9, Nonylamine] , Contribution of Liver to the fish's body burden read: 0.19

Contribution of Liver to the fish's body burden on rainbow trout (Oncorhynchus mykiss) for CCCCCCCCCCCCN [P12, Dodecylamine] is 0.24

* * *

Tested on: rainbow trout (Oncorhynchus mykiss)
Assay: Contribution of tissues to fish body burden
Assay type: in vivo
Details: in vivo
Source text: To calculate the quantity of the test chemical in the different tissues, the amount of each tissue in the fish was estimated and multiplied by the concentration in that tissue. The test chemical quantities in the different tissues were then summed to give the body burden in each fish. […] The remaining tissue (difference between the weight of the whole fish and the weight of liver, gills, skin, and blood) was assumed to have the concentration measured in the muscle. […]
measured parameter: % contribution to body burden, Liver (%)
Give a bare numeral; the unit % is implied.

The compound listed as CCCCCCCCCCCCCCCCNC has a reported % contribution to body burden, Liver of 12

Documented % contribution to body burden, Liver of CCCCCCCCCCCCNC : 17

Reported % contribution to body burden, Liver of CCCCCCCCCC[N+](C)(C)C : 3

What the record says about CCCCCCCCCCCCCC[N+](C)(C)C : % contribution to body burden, Liver is 5

compound CCCCCCCCCCCCCCN(C)C , % contribution to body burden, Liver observed: 7

// sample CCCCCCCCCCN(C)C , its % contribution to body burden, Liver was 18

* * *

System: rainbow trout (Oncorhynchus mykiss)
Assay: Contribution of tissues to fish body burden
Format: in vivo
Conditions: fraction, Mean
From the text: To calculate the quantity of the test chemical in the different tissues, the amount of each tissue in the fish was estimated and multiplied by the concentration in that tissue. The test chemical quantities in the different tissues were then summed to give the body burden in each fish. […] The remaining tissue (difference between the weight of the whole fish and the weight of liver, gills, skin, and blood) was assumed to have the concentration measured in the muscle. […]
measured parameter: Contribution of Skin to the fish's body burden
The answer should be written as a number, with no unit following it.

// recorded Contribution of Skin to the fish's body burden for CCCCCCCCCN [P9, Nonylamine] : 0.13

# molecule CCCCCCCCCN(C)C [T9, N,N-dimethylnonylamine] ; its Contribution of Skin to the fish's body burden = 0.21

Record CCCCCCCCCCCCCN [P13, tridecylamine] . Reported Contribution of Skin to the fish's body burden: 0.20

Per the record, CCCCCCCCCCCCCN(C)C [T13, N,N-dimethyltridecylamine] has Contribution of Skin to the fish's body burden of 0.21

Looking up CCCCCCCCCCCCN [P12, Dodecylamine] , I see its Contribution of Skin to the fish's body burden listed as 0.21

CCCCCCCCCCCCCCCCN [P16, hexadecylamine] has a reported Contribution of Skin to the fish's body burden of 0.11
